Items are presented alongside their recorded % inh. (percentage inhibition of IL-5 production).
Test system: IL-5 production
Assay: In vitro inhibition of IL-5 production in human blood (phytohemagglutinin-stimulated whole blood, ELISA);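 note: values marked with an asterisk were tested at 10 µM and unmarked values at 1 µM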
Type: cell-based
Conditions: test dose 1×10^−6 M, 48 hours
measured quantity: % inh. (percentage inhibition of IL-5 production) (%)

{"columns": ["molecule", "reported"],
 "data": [
  ["O=c1cnn(-c2cc(Cl)c(C(c3ccc(Cl)cc3)c3nc(-c4cccs4)cs3)c(Cl)c2)c(=O)[nH]1 (racemic) [Comp 31]", 93],
  ["CC(c1ccc(Cl)c(C(F)(F)F)c1)(c1nc(-c2ccccc2)cs1)c1ccc(-n2ncc(=O)[nH]c2=O)cc1Cl (racemic) [Comp 239]", 72],
  ["Cc1nc(-c2ccccc2Cl)sc1C(c1ccc(Cl)cc1)c1ccc(-n2ncc(=O)[nH]c2=O)cc1Cl (racemic) [Compound 154]", 42],
  ["CCc1sc(C(c2ccc(Cl)cc2)c2c(Cl)cc(-n3ncc(=O)[nH]c3=O)cc2Cl)nc1-c1cccc(F)c1 (racemic) [Comp 260]", 98],
  ["O=c1cnn(-c2cc(Cl)c(C(c3ccc(Cl)cc3)c3nc(-c4cc(F)cc(F)c4)cs3)c(Cl)c2)c(=O)[nH]1 (racemic) [Comp 286]", 86],
  ["CN(Cc1ccccc1)Cc1sc(C(c2ccc(Cl)cc2)c2c(Cl)cc(-n3ncc(=O)[nH]c3=O)cc2Cl)nc1-c1ccccc1 (racemic) [Comp 297]", 90],
  ["Cn1ccnc1C(O)(c1ccc(Cl)cc1)c1ccc(-n2ncc(=O)[nH]c2=O)cc1Cl.O (racemic) [Compound 120]", 10],
  ["O=c1cnn(-c2cc(Cl)c(C(Sc3nc(-c4ccccc4)no3)c3ccc(Cl)c(C(F)(F)F)c3)c(Cl)c2)c(=O)[nH]1 (racemic) [Compound 404]", 92],
  ["O=c1cnn(-c2cc(Cl)c(C(c3ccc(Cl)cc3)c3csc(-c4ccccc4F)n3)c(Cl)c2)c(=O)[nH]1 (racemic) [Compound 364]", 95],
  ["O=c1cnn(-c2ccc(C(c3ccc(Cl)cc3)c3nnc(-c4ccccc4)o3)c(Cl)c2)c(=O)[nH]1 (racemic) [Comp 101]", 66],
  ["Cc1nc(-c2ccccc2F)c(C(c2ccc(Cl)cc2)c2c(Cl)cc(-n3ncc(=O)[nH]c3=O)cc2Cl)s1 (racemic) [Compound 152]", 87]
]}

---

Items are presented alongside their recorded % inh. (percentage inhibition of IL-5 production).
System: IL-5 production
Test: In vitro inhibition of IL-5 production in human blood (phytohemagglutinin-stimulated whole blood, ELISA);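 note: values marked with an asterisk were tested at 10 µM and unmarked values at 1 µM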
Assay type: cell-based
Conditions: test dose 1×10^−6 M, 48 hours
measured quantity: % inh. (percentage inhibition of IL-5 production) (%)

{"columns": ["compound", "reported"],
 "data": [
  ["O=C(NCc1sc(C(c2ccc(Cl)cc2)c2c(Cl)cc(-n3ncc(=O)[nH]c3=O)cc2Cl)nc1-c1ccccc1)Nc1ccc(Cl)cc1 (racemic) [Comp 333]", 61],
  ["Cc1nc(-c2ccccc2)c(C(c2ccc(Cl)cc2)c2ccc(-n3ncc(=O)[nH]c3=O)cc2)s1 (racemic) [Compound 146]", 83],
  ["COc1ccc(Br)c(-c2csc(C(c3ccc(Cl)cc3)c3c(Cl)cc(-n4ncc(=O)[nH]c4=O)cc3Cl)n2)c1 (racemic) [Comp 25]", 88]
]}

---

Tested on: IL-5 production
Assay: In vitro inhibition of IL-5 production in human blood (phytohemagglutinin-stimulated whole blood, ELISA);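 note: values marked with an asterisk were tested at 10 µM and unmarked values at 1 µM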
Format: cell-based
Conditions: test dose 1×10^−6 M, 48 hours
# % inh. (percentage inhibition of IL-5 production) >= 80% gives True, anything below gives False

{"columns": ["compound", "discrete label"],
 "data": [
  ["O=c1cnn(-c2cc(Cl)c(C(c3ccc(Cl)cc3)c3ncc(-c4ccccc4)o3)c(Cl)c2)c(=O)[nH]1 (racemic)", "True"],
  ["CCc1sc(C(c2ccc(Cl)cc2)c2c(Cl)cc(-n3ncc(=O)[nH]c3=O)cc2Cl)nc1-c1ccccc1 (racemic)", "True"],
  ["O=c1cnn(-c2cc(Cl)c(C(c3ccc(Cl)cc3)c3nnc(-c4cccnc4)o3)c(Cl)c2)c(=O)[nH]1 (racemic)", "True"],
  ["O=c1cnn(-c2cc(Cl)c(C(c3ccc(Cl)cc3)c3nc(-c4cccc(Br)c4)cs3)c(Cl)c2)c(=O)[nH]1 (racemic)", "True"],
  ["O=c1cnn(-c2ccc(C(SCc3ccc(Cl)cc3)c3ccc(Cl)cc3)c(Cl)c2)c(=O)[nH]1 (racemic)", "False"],
  ["O=c1cnn(-c2ccc(C(SCc3ccco3)c3ccc(Cl)cc3)c(Cl)c2)c(=O)[nH]1 (racemic)", "False"],
  ["CC(c1ccc(Cl)c(F)c1)(c1nc(-c2ccccc2)cs1)c1c(Cl)cc(-n2ncc(=O)[nH]c2=O)cc1Cl (racemic)", "True"],
  ["COCCNCc1sc(C(c2ccc(Cl)cc2)c2c(Cl)cc(-n3ncc(=O)[nH]c3=O)cc2Cl)nc1-c1ccccc1 (racemic)", "True"]
]}
